Origin of measurements: ChEMBL document CHEMBL1759894

These records show IC50 for Melanin-concentrating hormone receptor 1 (Homo sapiens, UniProt Q99705).
measured.attribute: IC50 (nM)

CC(=O)Nc1cccc(C2CCN(CCn3c(-c4ccccc4)nc4ccccc43)CC2)c1 | 10000

a. CC(=O)Nc1cccc(C2CCN(CCCn3c(-c4cccc(C(F)(F)F)c4)nc4ccccc43)CC2)c1
b. Cc1ccc(C(=O)Nc2cccc(C3CCN(CCCn4c(-c5ccc(Cl)cc5)nc5ccccc54)CC3)c2)cc1
Q: Given a and b , report the one with the higher recorded IC50. Give the chosen item's label as your response.
Result: b

---

test: Drug level in rat brain at 10 mg/kg, po at 3 hrs; assay type: ADME, organism-based; parameters: dose 10 mg/kg, route oral; conditions: read-out: Drug uptake
measured.attribute: concentration at 3 h (ng/g)
The answer is to be given in ng/g; state only the numeric part.

Q: I'd like to know its concentration at 3 h. The compound in question is `CC(=O)Nc1cccc(C2CCN(CCCn3c(-c4ccc(Cl)cc4)nc4ccccc43)CC2)c1`
Result: 160

---

assay: Clearance in rat at 10 mg/kg, iv; assay type: ADME, organism-based; parameters: dose 10 mg/kg, route intravenous; settings: in vivo
measured.attribute: clearance (mL/min/kg)
The answer is to be given in mL/min/kg; state only the numeric part.

Q: I'd like to know its clearance. The compound in question is `CC(=O)Nc1cccc(C2CCN(CCCn3c(-c4ccc(Cl)cc4)nc4ccccc43)CC2)c1`
Result: 28.3

---

test: Half life in rat at 10 mg/kg, iv and po; format: ADME, organism-based; parameters: dose 10 mg/kg, route oral; conditions: in vivo
measured.attribute: half-life (h)
The answer is to be given in h; state only the numeric part.

Q: I'd like to know its half-life. The compound in question is `CC(=O)Nc1cccc(C2CCN(CCCn3c(-c4ccc(Cl)cc4)nc4ccccc43)CC2)c1`
Result: 4.3

---

experiment: Metabolic stability in human liver microsomes after 30 mins; assay type: ADME, Microsome; conditions: read-out: Stability
measured.attribute: remaining at 0.5 h (%)
The answer is to be given in %; state only the numeric part.

Q: I'd like to know its remaining at 0.5 h. The molecule in question is `CC(=O)Nc1cccc(C2CCN(CCCn3c(-c4ccc(Cl)cc4)nc4ccccc43)CC2)c1`
Result: 97

---

assay: Metabolic stability in rat liver microsomes after 30 mins; type: ADME, Microsome; conditions: read-out: Stability
measured.attribute: remaining at 0.5 h (%)
The answer is to be given in %; state only the numeric part.

Q: I'd like to know its remaining at 0.5 h. The molecule in question is `CC(=O)Nc1cccc(C2CCN(CCCn3c(-c4ccc(Cl)cc4)nc4ccccc43)CC2)c1`
Result: 98
